assay: Microsomal stability; format: in vitro ADME; conditions: human microsomes, RTV +
Measured Microsomal CLint Human by item
Respond numerically; units are μL min^-1 mg^1 and should not be typed.

compound="CC[C@H](C)CN(C[C@@H](O)[C@H](Cc1ccccc1)NC(=O)O[C@H]1CO[C@H]2OCC[C@H]21)S(=O)(=O)c1ccc2c(c1)OCO2 [10d]" val=24
compound="CC[C@H](C)CN(C[C@@H](O)[C@H](Cc1ccccc1)NC(=O)O[C@H]1CO[C@H]2OCC[C@H]21)S(=O)(=O)c1ccc(OC)cc1 [10b]" val=19

Query: I am curious: what Microsomal CLint Human value has been reported for CCC(CC)CN(C[C@@H](O)[C@H](Cc1ccccc1)NC(=O)O[C@H]1CO[C@H]2OCC[C@H]21)S(=O)(=O)c1ccc2c(c1)OCO2 [11d] ?
Response: 46

Query: CCC(CC)CN(C[C@@H](O)[C@H](Cc1ccccc1)NC(=O)O[C@H]1CO[C@H]2OCC[C@H]21)S(=O)(=O)c1ccc(OC)cc1 [11b] , same question.
Response: 23

Query: Query CC[C@H](C)CN(C[C@@H](O)[C@H](Cc1ccccc1)NC(=O)O[C@H]1CO[C@H]2OCC[C@H]21)S(=O)(=O)c1ccc(N)cc1 [10a] next
Response: 21

Query: Try the compound CC[C@H](C)CN(C[C@@H](O)[C@H](Cc1ccccc1)NC(=O)O[C@H]1CO[C@H]2OCC[C@H]21)S(=O)(=O)c1ccc(CO)cc1 [10c]
Response: 8

Query: What do you have for CCC(CC)CN(C[C@@H](O)[C@H](Cc1ccccc1)NC(=O)O[C@H]1CO[C@H]2OCC[C@H]21)S(=O)(=O)c1ccc(CO)cc1 [11c] ?
Response: 26

----------
experiment: Microsomal stability; format: in vitro ADME; settings: rat microsomes, RTV −
Items are presented alongside their recorded Microsomal T1/2 Rat.
State the answer as a number, implicitly in min.

compound="CC[C@H](C)CN(C[C@@H](O)[C@H](Cc1ccccc1)NC(=O)O[C@H]1CO[C@H]2OCC[C@H]21)S(=O)(=O)c1ccc(CO)cc1 [10c]" measure_unit=min val=3
compound="CC[C@H](C)CN(C[C@@H](O)[C@H](Cc1ccccc1)NC(=O)O[C@H]1CO[C@H]2OCC[C@H]21)S(=O)(=O)c1ccc2c(c1)OCO2 [10d]" measure_unit=min val=2
compound="CCC(CC)CN(C[C@@H](O)[C@H](Cc1ccccc1)NC(=O)O[C@H]1CO[C@H]2OCC[C@H]21)S(=O)(=O)c1ccc2c(c1)OCO2 [11d]" measure_unit=min val=3

Moving on to another compound below.
Query: What value of Microsomal T1/2 Rat has been reported for the following compound? CC[C@H](C)CN(C[C@@H](O)[C@H](Cc1ccccc1)NC(=O)O[C@H]1CO[C@H]2OCC[C@H]21)S(=O)(=O)c1ccc(OC)cc1 [10b]
Response: 2

----------
Listed below: Microsomal CLint Human values for each entry.
assay: Microsomal stability; type: in vitro ADME; settings: human microsomes, RTV −
The figure you give is taken to be in μL min^-1 mg^1; do not add the unit.

Consider the reported Microsomal CLint Human for these compounds:
compound="CC[C@H](C)CN(C[C@@H](O)[C@H](Cc1ccccc1)NC(=O)O[C@H]1CO[C@H]2OCC[C@H]21)S(=O)(=O)c1ccc2c(c1)OCO2 [10d]" val=232
compound="CCC(CC)CN(C[C@@H](O)[C@H](Cc1ccccc1)NC(=O)O[C@H]1CO[C@H]2OCC[C@H]21)S(=O)(=O)c1ccc2c(c1)OCO2 [11d]" val=617
compound="CC[C@H](C)CN(C[C@@H](O)[C@H](Cc1ccccc1)NC(=O)O[C@H]1CO[C@H]2OCC[C@H]21)S(=O)(=O)c1ccc(CO)cc1 [10c]" val=590

Attention now shifts to the item below.
Query: // returns reported Microsomal CLint Human for input CC[C@H](C)CN(C[C@@H](O)[C@H](Cc1ccccc1)NC(=O)O[C@H]1CO[C@H]2OCC[C@H]21)S(=O)(=O)c1ccc(N)cc1 [10a]
Response: 81
